From: patent US20240109974A1

Target: T1, human TNFR2 on the surface of CHO-TNFR2 cells (human, UniProt P20333 23-461)
T1 construct: whole, on cells
T1 sequence (looked up): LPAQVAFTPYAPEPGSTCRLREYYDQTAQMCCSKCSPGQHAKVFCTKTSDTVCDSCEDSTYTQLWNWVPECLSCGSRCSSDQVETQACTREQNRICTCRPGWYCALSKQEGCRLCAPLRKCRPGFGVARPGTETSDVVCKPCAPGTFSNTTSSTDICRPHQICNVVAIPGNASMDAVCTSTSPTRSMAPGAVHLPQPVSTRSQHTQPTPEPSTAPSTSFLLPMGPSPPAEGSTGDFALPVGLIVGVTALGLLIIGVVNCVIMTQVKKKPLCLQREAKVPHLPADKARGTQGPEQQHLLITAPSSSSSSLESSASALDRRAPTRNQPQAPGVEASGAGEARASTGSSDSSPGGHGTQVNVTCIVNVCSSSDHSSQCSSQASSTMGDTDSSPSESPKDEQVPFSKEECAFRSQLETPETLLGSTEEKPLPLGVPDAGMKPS
Assay: flow cytometry on CHO-TNFR2 cells; AUC against 219-WT
EXPERIMENTAL READOUT: % Relative activity (Test antibody/WT antibody)
Express your answer as a number followed by its unit.

Per the records, this binder ( 219-Hu3 (antibody, V domains shown, also called VH5 + VL5) VH: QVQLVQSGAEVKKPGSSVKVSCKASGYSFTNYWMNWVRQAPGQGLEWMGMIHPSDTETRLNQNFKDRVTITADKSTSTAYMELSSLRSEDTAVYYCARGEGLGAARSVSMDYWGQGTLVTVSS VL: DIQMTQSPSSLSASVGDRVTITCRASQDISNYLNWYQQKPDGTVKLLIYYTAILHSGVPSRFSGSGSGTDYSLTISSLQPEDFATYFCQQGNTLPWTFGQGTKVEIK ) has % Relative activity (Test antibody/WT antibody) equal to 96.4%
